- Test system: conscious dogs (beagles)
- method.notes: Effect on heart rate and arterial blood pressure of conscious dogs
- Assay type: in vivo, dog
- test.conditions: methyl cellulose 1% + 2% DMSO, 24 mg/kg oral, 180 min; preliminary value 83
metric.name: HR (beats/min)
Answer with a number only, understood to be in beats/min.

# HR lookup, item c1ccn2c(=Nc3ccncc3)snc2c1 [Example 2b]
76

====

- Tested on: conscious dogs (beagles)
- method.notes: Effect on heart rate and arterial blood pressure of conscious dogs
- Assay type: in vivo, dog
- test.conditions: methyl cellulose 1% + 2% DMSO, 24 mg/kg oral, 90 min; preliminary value 114
metric.name: MAP (mmHg)
Answer with a number only, understood to be in mmHg.

# MAP lookup, item `c1ccn2c(=Nc3ccncc3)snc2c1`
110

====

- system.tested: PDE III
- method.notes: PDE III inhibition, isolated human enzyme preparations
- test.conditions: isolated human enzyme preparation
metric.name: IC50 (µM)
Answer with a number only, understood to be in µM.

# IC50 lookup, item c1ccn2c(=Nc3ccncc3)snc2c1 [Example 2b]
80

====

- Test system: conscious dogs (beagles)
- method.notes: Effect on heart rate and arterial blood pressure of conscious dogs
- Format: in vivo, dog
- test.conditions: methyl cellulose 1% + 2% DMSO, 24 mg/kg oral, 60 min; preliminary value 83
metric.name: HR
Number first, unit second: that is the form wanted.

# HR lookup, item `c1ccn2c(=Nc3ccncc3)snc2c1`
79 beats/min

====

- Test system: conscious dogs (beagles)
- method.notes: Effect on heart rate and arterial blood pressure of conscious dogs
- Type: in vivo, dog
- test.conditions: methyl cellulose 1% + 2% DMSO, 24 mg/kg oral, 240 min; preliminary value 114
metric.name: MAP (mmHg)
Answer with a number only, understood to be in mmHg.

# MAP lookup, item `c1ccn2c(=Nc3ccncc3)snc2c1`
108

====

- Test system: conscious dogs (beagles)
- method.notes: Effect on heart rate and arterial blood pressure of conscious dogs
- Format: in vivo, dog
- test.conditions: edible oil + 2% DMSO, 24 mg/kg oral, 30 min; preliminary value 66
metric.name: DBP (mmHg)
Answer with a number only, understood to be in mmHg.

# DBP lookup, item c1ccn2c(=Nc3ccncc3)snc2c1 [Example 2b]
63

====

- Tested on: conscious dogs (beagles)
- method.notes: Effect on heart rate and arterial blood pressure of conscious dogs
- Type: in vivo, dog
- test.conditions: methyl cellulose 1% + 2% DMSO, 1 ml/kg, 24 mg/kg oral, 30 min; preliminary value 83; average n=5
metric.name: HR (beats/min)
Answer with a number only, understood to be in beats/min.

# HR lookup, item c1ccn2c(=Nc3ccncc3)snc2c1 [Example 2b]
85

====

- Tested on: conscious dogs (beagles)
- method.notes: Effect on heart rate and arterial blood pressure of conscious dogs
- Type: in vivo, dog
- test.conditions: methyl cellulose 1% + 2% DMSO, 24 mg/kg oral, 360 min; preliminary value 172
metric.name: SBP (mmHg)
Answer with a number only, understood to be in mmHg.

Lab note: need SBP for `c1ccn2c(=Nc3ccncc3)snc2c1` on conscious dogs (beagles), anyone have it?
170

====

- System: conscious dogs (beagles)
- method.notes: Effect on heart rate and arterial blood pressure of conscious dogs
- Format: in vivo, dog
- test.conditions: methyl cellulose 1% + 2% DMSO, 24 mg/kg oral, 210 min; preliminary value 83
metric.name: HR (beats/min)
Answer with a number only, understood to be in beats/min.

# HR lookup, item `c1ccn2c(=Nc3ccncc3)snc2c1`
84
